target_desc: T1, Mdm2 joined to HaloTag (UniProt Q00987 1-491, HaloTag covalently labelled with a cell permeable fluorogenic substrate)
T1 construct: Mdm2 of the p53:Mdm2 NanoBRET System (Promega); Construct of a bought kit (Promega); source: HEK293, transiently transfected, in live cells
assay_info: FRET or BRET; nanoBRET in live HEK293 cells transfected with p53-nanoLUC and Mdm2-HaloTag; stapled peptide titrated (10 points), 10% FCS, signal after 4 hours
conditions: one partner purified
pIC50: −log10 of the molar value. Positions of bridges follow the written chain, without caps; N, C: chain ends. Non-standard residues stand in square brackets, D forms with d. R8 = C=CCCCCCC[C@@](C)(N)C(=O)O; S5 = C=CCCC[C@](C)(N)C(=O)O; Ahx = NCCCCCC(=O)O

# binder, pIC50
measured = [
    ("Ac-KK[Ahx]TSF[R8]EYWALL[S5]ENF-NH2 (staple 7-14) [VIP-82]", 4.76),
]
